Measured values drawn from patent US10576095B2 for this set.

Overview of reported CC50 at 24 h across a group of compounds:
Test: Cytotoxicity assay, wst-1 cell proliferation, HEK-293
Type: cell-based
Details: human, HEK-293 cells, 24 hours incubation, read-out: LC50 Mean
Give the value, in units of mM, as a plain number.

Solved cases below.
compound: C[C@H](N)[C@H]1O[C@@H](O[C@@H]2C(O)[C@H](N)CC(N)[C@H]2O[C@H]2OC([C@@H](C)O)[C@@H](O)[C@H](O)C2N)C(O)[C@H]1O (stereo partly drawn)
test-readout: CC50 at 24 h
observed-measurement: 17.8
//
compound: C[C@@H](N)[C@H]1O[C@@H](O[C@@H]2C(O)[C@H](N)CC(N)[C@H]2O[C@H]2OC(CO)[C@@H](O)[C@H](O)C2N)C(O)[C@H]1O (stereo partly drawn)
test-readout: CC50 at 24 h
observed-measurement: 32.2
//
compound: C[C@@H](O)C1O[C@H](O[C@@H]2C(N)C[C@@H](N)C(O)[C@H]2O[C@@H]2O[C@H]([C@@H](C)N)[C@H](O)C2O)C(N)[C@@H](O)[C@@H]1O (stereo partly drawn)
test-readout: CC50 at 24 h
observed-measurement: 26.6
//
compound: C[C@H](N)[C@H]1O[C@@H](O[C@@H]2C(O)[C@H](NC(=O)[C@@H](O)CCN)CC(N)[C@H]2O[C@H]2OC(CO)[C@@H](O)[C@H](O)C2N)C(O)[C@H]1O (stereo partly drawn)
test-readout: CC50 at 24 h
observed-measurement: 14
//
compound: C[C@@H](N)[C@H]1O[C@@H](O[C@@H]2C(O)[C@H](NC(=O)[C@@H](O)CCN)CC(N)[C@H]2O[C@H]2OC(CO)[C@@H](O)[C@H](O)C2N)C(O)[C@H]1O (stereo partly drawn)
test-readout: CC50 at 24 h
observed-measurement: 19.1

Now let's try a different one.
Task item: What measured CC50 at 24 h goes with C[C@H](N)[C@H]1O[C@@H](O[C@@H]2C(O)[C@H](N)CC(N)[C@H]2O[C@H]2OC(CO)[C@@H](O)[C@H](O)C2N)C(O)[C@H]1O (stereo partly drawn) ?
Reply: 40.7

* * *

Test system: HEK-293 cells
Assay: Cytotoxicity assay, wst-1 cell proliferation, HEK-293
Assay type: cell-based
Settings: 24 hours incubation, read-out: LC50 Mean
test-readout: CC50 (mM)
Give the value, in units of mM, as a plain number.

Task item: What measured CC50 goes with CC(N)C1OC(OC2C(O)C(NC(=O)C(O)CCN)CC(N)C2OC2OC(C(C)O)C(O)C(O)C2N)C(O)C1O (stereo not shown) ?
Reply: 14

* * *

Test system: Rett R270X nonsense mutation construct
Format: biochemical
Conditions: TNT reticulocyte lysate; compounds at 0-50 μM, dose-escalating; luciferase after 90 minutes at 30° C.
test-readout: pIC50
Friendly reminder that pIC50 comes from taking -log10 of the concentration in mol/L.

Solved cases below.
compound: CC(N)C1OC(OC2C(O)C(NC(=O)C(O)CCN)CC(N)C2OC2OC(C(C)O)C(O)C(O)C2N)C(O)C1O (centres unmarked) [NB127]
target: Rett R270X nonsense mutation construct
observed-measurement: 6.34
--
compound: C[C@H](N)[C@H]1O[C@@H](O[C@@H]2C(O)[C@H](NC(=O)[C@@H](O)CCN)CC(N)[C@H]2O[C@H]2OC(CO)[C@@H](O)[C@H](O)C2N)C(O)[C@H]1O (some centres unmarked) [NB122]
target: Rett R270X nonsense mutation construct
observed-measurement: 6.80
--
compound: C[C@H](N)[C@H]1O[C@@H](O[C@@H]2C(O)[C@H](N)CC(N)[C@H]2O[C@H]2OC([C@@H](C)O)[C@@H](O)[C@H](O)C2N)C(O)[C@H]1O (some centres unmarked) [NB124]
target: Rett R270X nonsense mutation construct
observed-measurement: 6.37

Now let's try a different one.
Task item: What measured pIC50 goes with C[C@@H](N)[C@H]1O[C@@H](O[C@@H]2C(O)[C@H](NC(=O)[C@@H](O)CCN)CC(N)[C@H]2O[C@H]2OC(CO)[C@@H](O)[C@H](O)C2N)C(O)[C@H]1O (some centres unmarked) [NB123] ?
Reply: 5.86
